meta.source: the Human Domainome abundance scans (Beltran et al. 2025)

B1: GA-binding protein alpha chain, residues 172 to 250; numbered along this chain, Q06546 (parent)
chain: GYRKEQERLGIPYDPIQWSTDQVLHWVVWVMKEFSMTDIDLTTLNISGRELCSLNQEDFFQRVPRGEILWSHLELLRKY

- Variants of: B1
- experiment: abundance fitness (aPCA) (normalised: wild type 0, dead -1); higher = more abundant; growth selection in yeast, the domain comes from the species named
- settings: Homo sapiens
measurement type: abundance fitness
Would you mind answering with just the numeric figure?

Example variants with recorded abundance fitness:
{"variant descriptor": "K78L", "abundance fitness": -0.135}
{"variant descriptor": "I11C", "abundance fitness": -0.487}
{"variant descriptor": "T43N", "abundance fitness": -0.037}
{"variant descriptor": "R77L", "abundance fitness": -0.165}
{"variant descriptor": "Q22F", "abundance fitness": -0.792}
{"variant descriptor": "D38P", "abundance fitness": -0.009}

What does the record list as abundance fitness for Q56V ?
-0.184

Now this one: D58N
-0.188

Now this one: L73E
-0.758
